# TARGET_DESC: T1, human IL-12 (human, UniProt P29460 23-328; P29459 23-219)
# T1 construct: Recombinant (Peprotech); FLAG-tagged IL-12 in the flow cytometry assays, biotinylated in the IL-12Rβ2 assay; also called hIL-12
# T1 sequence 1: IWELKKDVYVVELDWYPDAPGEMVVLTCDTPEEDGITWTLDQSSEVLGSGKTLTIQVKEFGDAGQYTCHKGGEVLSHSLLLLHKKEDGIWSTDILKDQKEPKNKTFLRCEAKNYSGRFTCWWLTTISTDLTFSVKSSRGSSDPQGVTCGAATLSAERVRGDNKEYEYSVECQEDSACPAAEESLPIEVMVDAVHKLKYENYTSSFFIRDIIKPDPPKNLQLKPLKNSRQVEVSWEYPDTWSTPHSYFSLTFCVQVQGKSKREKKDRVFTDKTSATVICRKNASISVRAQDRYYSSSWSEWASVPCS
# T1 sequence 2: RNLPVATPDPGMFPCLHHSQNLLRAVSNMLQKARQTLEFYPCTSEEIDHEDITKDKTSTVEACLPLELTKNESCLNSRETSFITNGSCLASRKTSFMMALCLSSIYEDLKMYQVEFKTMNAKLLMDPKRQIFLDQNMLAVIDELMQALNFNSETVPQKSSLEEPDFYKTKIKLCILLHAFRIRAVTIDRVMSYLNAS
# PROTOCOL_DETAILS: SPR, single 81 nM analyte, scFv via FLAG
RECORDED_ENDPOINT: kon
// return the numeric value with its unit appended

// query Please report kon for the following binder: scFv combo. # 3 (scFv, scFv-80 with VH T28A; VL S26P; not shown: proprietary C-terminal FLAG tag) scFv: QVQLVQSGAEVKKPGASVKVSCKASGYAFTDYYLHWVRQAPGQGLEWMGWIDPENGDTEYAPKFQGRVTMTTDTSTSTAYMELRSLRSDDTAVYYCNANKELRYFDVWGQGTMVTVSSGGGGSGGGGSGGGGSEIVMTQSPATLSVSPGERATLSCRAPQSISINLHWYQQKPGQAPRLLIYFASQSISGIPARFSGSGSGTEFTLTISSLQSEDFAVYYCQQSNSFPLTFGGGTKVEIKR
// result 1.6e+06 M⁻¹ s⁻¹
